Measured On: T1, recombinant CD22 extracellular domain
T1 construct: Kept apart from m18, which is cell-surface CD22; also called CD22 (analyte in the BIAcore runs); CD22 ECD
Protocol Text: ELISA on plates coated with recombinant CD22 extracellular domain (coating 2, 0.2, 0.02 or 0.002 ug/ml per paragraph 227; the sheet does not say which), anti-human IgG-HRP, read at 450 nm
For each of the binders below, state its ELISA OD 450.
Numbers only.

# example entries with known answers
>  <Binder>
VM1003 (antibody, V domains shown, Humanized antibody with human constant region; also called anti-CD22 Mab clone VM1003) VH: EVQLVQSGAEVKKPGATVKISCKVSGYVFTSYWLHWIRQSPSRGLEWLGYINPRNDYTEYNRIFKGRFVFSLDTSVSTAYLQICSLKAEDTAVYYCARRGITTFYWGQG VL: EIVLTQSPATLSLSPGERATLSCKSSQSVLYSAVEKNYLAWYQQKPGQAPRLLIYWASTRERGIPDRFSGSGSGTDFTLTISRLEPEDFAVYYCKQYLSSWTFGQG

>  <ELISA OD 450>
0.56

$$$$
>  <Binder>
VM1009 (antibody, V domains shown, Humanized antibody with human constant region; also called anti-CD22 Mab clone VM1009) VH: QVQLVQSGAEVKKPGASVKVSCKASGYVFTSYWLHWIRQSPSRGLEWLGYINPRNDYTEYNRIFKGRFVFSLDTSVSTAYLQICSLKAEDTAVYYCARRGITTFYWGQG VL: EIVLTQSPATLSLSPGERATLSCKSSQSVLYSAVEKNYLAWYQQKPGKAPKLLIYWASTRERGVPSRFSGSGSGTDFTFTISSLEAEDAATYYCKQYLSSWTFGQG

>  <ELISA OD 450>
0.597

$$$$
>  <Binder>
VM1008 (antibody, V domains shown, Humanized antibody with human constant region; also called Anti-CD22 Ab VM1008; anti-CD22 Mab clone VM1008) VH: QVQLVQSGAEVKKPGASVKVSCKASGYVFTSYWLHWVRQARGQRLEWIGYINPRNDYTEYNRIFKGRVTITADKSTSTAYMELSSLRSEDTAVYYCARRGITTFYWGQG VL: DIQMTQSPSSLSASVGDRVTITCKSSQSVLYSAVEKNYLAWYQQKPGQAPRLLIYWASTRERGIPDRFSGSGSGTDFTLTISRLEPEDFAVYYCKQYLSSWTFGQG

>  <ELISA OD 450>
0.67

$$$$
>  <Binder>
VM1000 (antibody, V domains shown, Humanized antibody with human constant region; also called anti-CD22 Mab clone VM1000) VH: QVQLVQSGAEVKKPGASVKVSCKASGYVFTSYWLHWIRQSPSRGLEWLGYINPRNDYTEYNRIFKGRLTISKDTSKNQVVLTMTNMDPVDTATYYCARRGITTFYWGQG VL: EIVLTQSPATLSLSPGERATLSCKSSQSVLYSAVEKNYLAWYQQKPGKAPKLLIYWASTRERGVPSRFSGSGSGTDFTFTISSLQPEDIATYYCKQYLSSWTFGQG

>  <ELISA OD 450>
0.517

$$$$
>  <Binder>
VM1006 (antibody, V domains shown, Humanized antibody with human constant region; also called anti-CD22 Mab clone VM1006) VH: QVQLVQSGAEVKKPGASVKVSCKASGYVFTSYWLHWIRQSPSRGLEWLGYINPRNDYTEYNRIFKGRFVFSLDTSVSTAYLQICSLKAEDTAVYYCARRGITTFYWGQG VL: DIQMTQSPSSLSASVGDRVTITCKSSQSVLYSAVEKNYLAWYQQKPGKAPKLLIYWASTRERGIPDRFSGSGSGTDFTLTISRLEPEDFAVYYCKQYLSSWTFGQG

>  <ELISA OD 450>
0.638

$$$$

Q: Suppose we examine the binder VM1001 (antibody, V domains shown, Humanized antibody with human constant region; also called anti-CD22 Mab clone VM1001) VH: QVQLVQSGAEVKKPGASVKVSCKASGYVFTSYWLHWIRQSPSRGLEWLGYINPRNDYTEYNRIFKGRLTISKDTSKNQVVLTMTNMDPVDTATYYCARRGITTFYWGQG VL: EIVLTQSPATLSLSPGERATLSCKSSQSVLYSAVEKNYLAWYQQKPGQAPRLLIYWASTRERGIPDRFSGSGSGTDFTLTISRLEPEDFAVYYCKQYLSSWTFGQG ; what ELISA OD 450 value has been reported?
Ans: 0.386
